Would you kindly list IC50 for each of these compounds?
Molecular target: α-amylase (Sus scrofa, UniProt P00690)
Sequence (P00690 16-511): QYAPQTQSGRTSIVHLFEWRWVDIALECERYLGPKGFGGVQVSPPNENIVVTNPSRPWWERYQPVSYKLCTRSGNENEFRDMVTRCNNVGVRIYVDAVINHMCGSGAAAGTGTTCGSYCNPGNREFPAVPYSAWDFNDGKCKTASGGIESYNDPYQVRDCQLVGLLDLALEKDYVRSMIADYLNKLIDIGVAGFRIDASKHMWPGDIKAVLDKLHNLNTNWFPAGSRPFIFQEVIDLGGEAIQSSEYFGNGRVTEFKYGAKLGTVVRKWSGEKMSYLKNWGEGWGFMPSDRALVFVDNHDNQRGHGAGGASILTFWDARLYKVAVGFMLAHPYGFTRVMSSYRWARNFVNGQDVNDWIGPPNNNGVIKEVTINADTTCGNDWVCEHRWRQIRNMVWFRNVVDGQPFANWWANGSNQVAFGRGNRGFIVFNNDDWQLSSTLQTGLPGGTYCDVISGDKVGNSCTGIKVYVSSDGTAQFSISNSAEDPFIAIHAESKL

compound	IC50
CC1=C[C@H]2OC3OC(=O)[C@@]4(C)CCC[C@@]3([C@@H]24)[C@H]1CC(=O)c1ccoc1	203 µM
CC1=C[C@H]2OC(=O)[C@@]3(C)CCC[C@@](C)([C@@H]23)[C@H]1CC(=O)c1ccoc1	185 µM
C=C(C)[C@@H]1CC[C@]2(C)CC[C@]3(C)[C@H](CC[C@@H]4[C@@]5(C)CC[C@H](O)C(C)(C)[C@@H]5CC[C@]43C)[C@@H]12	> 234 µM
CC[C@H](/C=C/[C@@H](C)[C@H]1CC[C@H]2[C@@H]3CC=C4C[C@@H](O[C@@H]5O[C@H](CO)[C@@H](O)[C@H](O)[C@H]5O)CC[C@]4(C)[C@H]3CC[C@]12C)C(C)C [Stigmasterol glucoside, Stigmasterol 3-O-β-D-glucopyranoside]	> 174 µM
CC1=CC2OC3OCC4(CCCC3(C)C24)C1CC(=O)c1ccoc1 (stereo not drawn)	225 µM

[in] Quick one: IC50 of CC[C@H](CC[C@@H](C)[C@H]1CC[C@H]2[C@@H]3CC=C4C[C@@H](O[C@@H]5O[C@H](CO)[C@@H](O)[C@H](O)[C@H]5O)CC[C@]4(C)[C@H]3CC[C@]12C)C(C)C [β-Sitosterol glucoside, 3β-O-D-glucopyranosyl-β-sitosterol] ?
[out] > 173 µM
